- test-system: α4β1 integrin (Homo sapiens, UniProt P05556+P13612)
- Construct: endogenous in cells; host or cells: Ramos cells
- Sequence (P13612 34-1032): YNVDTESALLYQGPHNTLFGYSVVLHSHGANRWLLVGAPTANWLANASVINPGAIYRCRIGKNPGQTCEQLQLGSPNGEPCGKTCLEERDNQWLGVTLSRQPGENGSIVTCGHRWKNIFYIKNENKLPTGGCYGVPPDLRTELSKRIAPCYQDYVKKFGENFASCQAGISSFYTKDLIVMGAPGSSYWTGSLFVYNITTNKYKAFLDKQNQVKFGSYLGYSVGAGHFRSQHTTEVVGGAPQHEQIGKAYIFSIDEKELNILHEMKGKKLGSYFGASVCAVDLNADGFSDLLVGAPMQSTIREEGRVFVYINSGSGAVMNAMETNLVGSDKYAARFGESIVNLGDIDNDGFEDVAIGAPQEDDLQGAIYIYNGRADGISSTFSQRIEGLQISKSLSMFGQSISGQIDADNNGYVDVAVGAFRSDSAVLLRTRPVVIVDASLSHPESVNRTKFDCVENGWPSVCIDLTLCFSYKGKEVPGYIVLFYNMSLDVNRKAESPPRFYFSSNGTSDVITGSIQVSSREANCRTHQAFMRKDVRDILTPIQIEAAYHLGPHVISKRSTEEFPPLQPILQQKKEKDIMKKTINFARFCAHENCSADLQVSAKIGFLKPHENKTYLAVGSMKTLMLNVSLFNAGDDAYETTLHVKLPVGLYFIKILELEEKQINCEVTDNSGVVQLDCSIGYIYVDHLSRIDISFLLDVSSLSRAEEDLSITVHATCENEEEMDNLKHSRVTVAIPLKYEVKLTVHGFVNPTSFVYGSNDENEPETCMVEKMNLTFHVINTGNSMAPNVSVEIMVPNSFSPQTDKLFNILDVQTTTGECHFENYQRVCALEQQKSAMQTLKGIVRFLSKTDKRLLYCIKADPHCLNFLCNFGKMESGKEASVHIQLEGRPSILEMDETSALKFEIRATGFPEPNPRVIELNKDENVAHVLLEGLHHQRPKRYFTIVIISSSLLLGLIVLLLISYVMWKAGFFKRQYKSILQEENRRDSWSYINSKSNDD
- Sequence (P05556 21-798): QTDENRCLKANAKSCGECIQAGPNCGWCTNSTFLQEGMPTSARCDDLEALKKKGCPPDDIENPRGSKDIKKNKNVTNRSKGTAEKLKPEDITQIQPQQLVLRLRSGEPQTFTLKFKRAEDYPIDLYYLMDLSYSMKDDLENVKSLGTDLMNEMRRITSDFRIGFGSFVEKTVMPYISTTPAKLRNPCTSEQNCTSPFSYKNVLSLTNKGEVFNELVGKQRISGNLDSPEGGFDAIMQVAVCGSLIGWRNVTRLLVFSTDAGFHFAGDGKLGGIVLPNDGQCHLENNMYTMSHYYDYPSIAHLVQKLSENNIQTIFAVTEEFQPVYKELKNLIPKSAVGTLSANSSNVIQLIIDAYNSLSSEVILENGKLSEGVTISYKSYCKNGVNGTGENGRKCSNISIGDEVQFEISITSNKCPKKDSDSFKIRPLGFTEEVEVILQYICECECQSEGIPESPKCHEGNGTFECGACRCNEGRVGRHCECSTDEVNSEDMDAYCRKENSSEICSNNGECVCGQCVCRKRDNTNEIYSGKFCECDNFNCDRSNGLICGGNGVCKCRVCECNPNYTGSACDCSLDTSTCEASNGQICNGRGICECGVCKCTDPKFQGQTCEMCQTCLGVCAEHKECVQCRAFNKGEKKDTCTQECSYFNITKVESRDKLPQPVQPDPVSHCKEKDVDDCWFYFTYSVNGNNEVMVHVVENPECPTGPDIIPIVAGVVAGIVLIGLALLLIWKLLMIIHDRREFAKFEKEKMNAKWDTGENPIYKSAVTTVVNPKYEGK
- assay-overview: Adhesion of calcein-labeled Ramos cells to CS1 (fibronectin) peptide conjugated ovalbumin
- Assay type: cell-based
- stated-conditions: Table 7; Ramos cell adhesion to CS1 conjugated ovalbumin; dose required to give 50% inhibition
pIC50: −log10 of the molar value.
Respond with rule met for pIC50 values of 8 and above, rule not met for values below.

Solved entries:
INSERT INTO measurements (given_smiles, class_label) VALUES
  ('Cc1ccccc1[C@H](CC(=O)O)NC(=O)Nc1c(O)c(C)cn(Cc2ccccc2Cl)c1=O', 'rule not met'),
  ('CCN(c1cccc([C@H](CC(=O)O)NC(=O)Nc2c(O)c3c(n(Cc4c(C)cccc4Cl)c2=O)CCC3)c1)S(C)(=O)=O', 'rule met'),
  ('CCc1ccc([C@H](CC(=O)O)NC(=O)Nc2c(O)c(C)cn(Cc3ccccc3Cl)c2=O)cc1', 'rule not met'),
  ('Cc1ccccc1-c1ccc([C@H](CC(=O)O)NC(=O)Nc2c(O)c(C)cn(Cc3ccccc3Cl)c2=O)cc1', 'rule not met'),
  ('CCOc1cccc([C@H](CC(=O)O)NC(=O)Nc2c(O)c(C)nn(Cc3c(Cl)cccc3OCC)c2=O)c1', 'rule met'),
  ('Cc1cn(Cc2ccccc2Cl)c(=O)c(NC(=O)N[C@@H](CC(=O)O)c2cccc(-c3ccccc3F)c2)c1O', 'rule not met'),
  ('CCOc1cccc([C@H](CC(=O)O)NC(=O)Nc2c(O)c3c(n(Cc4c(Cl)cccc4OCCOC)c2=O)CCC3)c1', 'rule met'),
  ('Cc1ccccc1-c1cccc([C@H](CC(=O)O)NC(=O)Nc2c(O)c(C)cn(Cc3ccccc3Cl)c2=O)c1', 'rule not met');

Prompt: In plain terms: is recorded pIC50 at least 8 for Cc1cn(Cc2ccccc2Cl)c(=O)c(NC(=O)N[C@@H](CC(=O)O)c2cccc3ccn(C)c23)c1O ?
Completion: rule not met

Prompt: Now this one: CCCc1cn(Cc2c(Cl)cccc2OCC)c(=O)c(NC(=O)N[C@@H](CC(=O)O)c2cccc(OC(C)C)c2)c1O
Completion: rule not met

Prompt: Field entry: CCOc1cccc(Cl)c1Cn1c(C)cc(O)c(NC(=O)N[C@@H](CC(=O)O)c2cccc(OC(C)C)c2)c1=O
Completion: rule met

====

// reported IC50 for each item listed
- test-system: α4β1 integrin (Homo sapiens, UniProt P05556+P13612)
- Construct: endogenous in cells; host or cells: Ramos cells
- assay-overview: Adhesion of calcein-labeled Ramos cells to CS1 (fibronectin) peptide conjugated ovalbumin
- Assay type: cell-based
- stated-conditions: Table 7; Ramos cell adhesion to CS1 conjugated ovalbumin; dose required to give 50% inhibition
The answer is to be given in nM; state only the numeric part.

# example entries with known answers
INSERT INTO assay_data (compound, observed) VALUES
  ('Cc1cc(C)cc(-c2cccc([C@H](CC(=O)O)NC(=O)Nc3c(O)c(C)cn(Cc4ccccc4Cl)c3=O)c2)c1', 50),
  ('CCOc1cc([C@H](CC(=O)O)NC(=O)Nc2c(O)c3c(n(Cc4c(C)cccc4Cl)c2=O)CCC3)c(Cl)c(OCC)c1Cl', 500),
  ('Cc1cccc(Cl)c1Cn1c2c(c(O)c(NC(=O)N[C@@H](CC(=O)O)c3cccc(OC4CC4)c3)c1=O)CCC2', 4),
  ('CCOc1cccc(Cl)c1Cn1c(C)c(CC)c(O)c(NC(=O)N[C@@H](CC(=O)O)c2cccc(OC(C)C)c2)c1=O', 5),
  ('CCCOc1cccc([C@H](CC(=O)O)NC(=O)Nc2c(O)c3c(n(Cc4c(C)cccc4Cl)c2=O)CCC3)c1', 12),
  ('CCOc1cccc(Cl)c1Cn1cc(C)c(O)c(NC(=O)NC(CC(=O)O)c2ccc(S(C)(=O)=O)cc2)c1=O (centres unmarked)', 8);

Prompt: Look up IC50: Cc1cn(Cc2ccccc2Cl)c(=O)c(NC(=O)NC(CC(=O)O)c2ccco2)c1O (centres unmarked)
Completion: 4

Prompt: Would you kindly repeat that for CCOc1ccc(Cl)c(Cl)c1Cn1c2c(c(O)c(NC(=O)N[C@@H](CC(=O)O)c3cccc(OCC4CC4)c3)c1=O)CCC2 ?
Completion: 7
